The reported numbers originate from ChEMBL document CHEMBL1126053.

Listed here are compounds together with their documented IC50.
biological target: Glutamate receptor ionotropic, NMDA 1 (Rattus norvegicus); assay: Inhibition of [3H]- glycine binding to NMDA receptor from rat cortical membranes.; type: cell membranes, Membrane
quantityMeasured: IC50

> print(dat)
                                    compound  recordedmeasurement
 1  O=C(O)[C@H]1C[C@H](N2CCN(c3ccccc3)C2=O)c2c(Cl)cc(Cl)cc2N1                 6 nM
 2  CN(C(=O)N[C@H]1C[C@H](C(=O)O)Nc2cc(Cl)cc(Cl)c21)c1ccccc1                45 nM
 3  O=C(N[C@H]1C[C@H](C(=O)O)Nc2cc(Cl)cc(Cl)c21)c1ccncc1               630 nM
 4  O=C(O)[C@H]1C[C@H](N2Cc3ccccc3C2=O)c2c(Cl)cc(Cl)cc2N1                27 nM
 5  N[C@@H](Cc1ccccc1)C(=O)N[C@H]1C[C@H](C(=O)O)Nc2cc(Cl)cc(Cl)c21              1050 nM
 6  O=C(Cc1ccccc1)N[C@H]1C[C@H](C(=O)O)Nc2cc(Cl)cc(Cl)c21 (stereo in doubt; 14)                14 nM
 7  O=C(Cc1ccc(Cl)cc1)N[C@H]1C[C@H](C(=O)O)Nc2cc(Cl)cc(Cl)c21                52 nM
 8  O=C(Cc1ccccc1)N[C@H]1C[C@H](C(=O)O)Nc2cc(Cl)cc(Cl)c21 (stereo in doubt; 15)                11 nM
 9  O=C(CC1CCCCC1)N[C@H]1C[C@H](C(=O)O)Nc2cc(Cl)cc(Cl)c21               110 nM
10  N[C@H](Cc1ccccc1)C(=O)N[C@H]1C[C@H](C(=O)O)Nc2cc(Cl)cc(Cl)c21              7000 nM
11  O=C(N[C@H]1C[C@H](C(=O)O)Nc2cc(Cl)cc(Cl)c21)c1ccco1               150 nM
12   N[C@H]1C[C@H](C(=O)O)Nc2cc(Cl)cc(Cl)c21             11300 nM
13  O=C(CCCc1ccccc1)N[C@H]1C[C@H](C(=O)O)Nc2cc(Cl)cc(Cl)c21               170 nM
14  Cc1ccc(CC(=O)N[C@H]2C[C@H](C(=O)O)Nc3cc(Cl)cc(Cl)c32)cc1                34 nM
15  O=C(CCc1ccccc1)N[C@H]1C[C@H](C(=O)O)Nc2cc(Cl)cc(Cl)c21                76 nM
16  O=C(O)[C@H]1C[C@H](NCc2ccccc2)c2c(Cl)cc(Cl)cc2N1             10700 nM
17  Nc1ccc(CC(=O)N[C@H]2C[C@H](C(=O)O)Nc3cc(Cl)cc(Cl)c32)cc1                18 nM
18  CCCC(=O)N[C@H]1C[C@H](C(=O)O)Nc2cc(Cl)cc(Cl)c21               370 nM
19  O=C(N[C@@H]1C[C@H](C(=O)O)Nc2cc(Cl)cc(Cl)c21)c1ccccc1              8300 nM
